// Activity lookup, one value per entry
# System: Bipolaris maydis
# Measurement notes: Antifungal activity against Bipolaris maydis relative to control
# Assay type: functional
# Design: concentration or dose not given beside the values
Give just the numeric value; % need not be written.

These solved cases illustrate the format of a correct answer.
Cc1nccc2c1[nH]c1ccccc12 36.4
COc1ccc2c(c1)[nH]c1c(C)nccc12 22.7

[in] What measured Activity goes with Cc1nc(C(=O)O)cc2c1[nH]c1ccccc12 ?
[out] 21.1

[in] What measured Activity goes with Cc1nccc2c1[nH]c1ccc([N+](=O)[O-])cc12 ?
[out] 31.6

[in] What measured Activity goes with Cc1nccc2c1[nH]c1cc(OC(=O)C(C)(C)C)ccc12 ?
[out] 78.9

[in] What measured Activity goes with Cc1nccc2c1[nH]c1cc(O)ccc12 ?
[out] 31.8

[in] What measured Activity goes with Cc1nc(/C=C/C(=O)O)cc2c1[nH]c1ccccc12 ?
[out] 9.8

[in] What measured Activity goes with N#Cc1c(Cl)c(Cl)c(Cl)c(C#N)c1Cl ?
[out] 91.3

---

# Tested on: Sclerotinia
# Measurement notes: Antifungal activity against sunflower Sclerotinia rot at 50 ug/ml relative to control
# Type: functional
# Condition set: dose 50 µg/ml
Outcome measure: Activity (%)
Give just the numeric value; % need not be written.

These solved cases illustrate the format of a correct answer.
Cc1nccc2c3ccccc3n(Cc3cn(-c4ccccc4)nn3)c12 85.04
COC(=O)Nc1nc2ccccc2[nH]1 89.77
Cc1nccc2c3ccccc3n(Cc3cn(-c4cc(F)c(F)c(F)c4)nn3)c12 85.98
Cc1nccc2c3ccccc3n(Cc3cn(-c4ccc(C(F)(F)F)cc4)nn3)c12 86.93
Cc1nccc2c3ccccc3n(Cc3cn(-c4ccncc4)nn3)c12 84.47

[in] What measured Activity goes with CO/C=C(/C(=O)OC)c1ccccc1Oc1cc(Oc2ccccc2C#N)ncn1 ?
[out] 88.07

---

// inhibition at 100 µg/mL lookup, one value per entry
# System: Aspergillus niger
# Measurement notes: Antifungal activity against Aspergillus niger assessed as inhibition of growth rate at 100 ug/ml by disc diffusion method relative to control
# Type: functional
Give just the numeric value; % need not be written.

These solved cases illustrate the format of a correct answer.
Compound	inhibition at 100 µg/mL, %
Oc1ccccc1C1NCCc2c1[nH]c1ccccc21 (centres undefined)	21.2
COC1=CC(=O)C[C@@H](C)[C@]12Oc1c(Cl)c(OC)cc(OC)c1C2=O	20.3
CN(C)c1ccc(C2NCCc3c2[nH]c2ccccc32)cc1 (centres undefined)	20.8

Now look at this one.
[in] What measured inhibition at 100 µg/mL goes with COc1cc(C2NCCc3c2[nH]c2ccccc32)ccc1O (centres undefined) ?
[out] 21.6

---

// MIC lookup, one value per entry
# Test system: Candida albicans
# Measurement notes: Antifungal activity against Candida albicans
# Assay type: functional, organism-based
# Condition set: Candida albicans
Give just the numeric value; µg/mL need not be written.

These solved cases illustrate the format of a correct answer.
CCCCCCCC[C@H]1N[C@H](C(=O)OC)Cc2c1[nH]c1ccccc21 14.8
C=CCCCCCCCCCOC(=O)c1cc2c([nH]c3ccccc32)c(-c2ccc(O)cc2)n1 2.8

Now look at this one.
[in] What measured MIC goes with C=CCCCCCCCCCOC(=O)c1cc2c([nH]c3ccccc32)c(-c2ccc(OC)cc2)n1 ?
[out] 8.6

---

# Tested on: Colletotrichum gloeosporioides
# Measurement notes: Antifungal activity against Colletotrichum gloeosporioides
# Assay type: functional
Outcome measure: MIC (µg/mL)
Give just the numeric value; µg/mL need not be written.

These solved cases illustrate the format of a correct answer.
Compound	Result unit	Reported result
COc1cc(C2c3[nH]c4ccccc4c3C[C@H]3C(=O)N4CCC[C@H]4C(=O)N23)ccc1O (some centres not stated)	µg/mL	12.5
O=C1[C@@H]2Cc3c([nH]c4ccccc34)C(c3ccc([N+](=O)[O-])cc3)N2C(=O)[C@@H]2CCCN12 (some centres not stated)	µg/mL	6.25
COc1ccc(C2c3[nH]c4ccccc4c3C[C@H]3C(=O)N4CCC[C@H]4C(=O)N23)cc1 (some centres not stated)	µg/mL	6.25
O=C1[C@@H]2Cc3c([nH]c4ccccc34)C(c3ccc(O)cc3)N2C(=O)[C@@H]2CCCN12 (some centres not stated)	µg/mL	12.5

[in] What measured MIC goes with CC(=O)N1CCN(c2ccc(OCC3COC(Cn4ccnc4)(c4ccc(Cl)cc4Cl)O3)cc2)CC1 (configuration not stated) ?
[out] 12.5

[in] What measured MIC goes with O=C1[C@@H]2Cc3c([nH]c4ccccc34)C(c3ccccc3)N2C(=O)[C@@H]2CCCN12 (some centres not stated) ?
[out] 12.5

[in] What measured MIC goes with CC(C)C1c2[nH]c3ccccc3c2C[C@H]2C(=O)N3CCC[C@H]3C(=O)N12 (some centres not stated) ?
[out] 12.5

---

# System: Fusarium solani
# Measurement notes: Antifungal activity against Fusarium solani incubated for 72 hrs
# Type: functional, organism-based
# Condition set: Fusarium solani, 72 h
// pEC50 lookup, one value per entry
pEC50 here is simply -log10 of the concentration when that concentration is written in mol/L.

Molecule	pEC50
c1ccc2[nH]c(-c3cscn3)nc2c1 [THIABENDAZOLE]	4.90

Now look at this one.
[in] What measured pEC50 goes with COC(=O)Nc1nc2ccccc2[nH]1 [CARBENDAZIM] ?
[out] 5.36

---

// Activity lookup, one value per entry
# Test system: Bipolaris maydis
# Measurement notes: Antifungal activity against Bipolaris maydis relative to control
# Type: functional
# Design: concentration or dose not given beside the values
Give just the numeric value; % need not be written.

Cc1nccc2c1[nH]c1c([N+](=O)[O-])cccc12 94.7
Cc1nccc2c1[nH]c1ccc(Br)cc12 86.4

[in] What measured Activity goes with Cc1nccc2c1[nH]c1cc(OC(=O)NC(C)C)ccc12 ?
[out] 22.7

The measurements presented in this section are drawn from ChEMBL document CHEMBL5136985.
